The values you see were collected from PubChem BioAssay AID741.

experiment summary: reversers of MRP drug resistance, dose response, cell-based (AID 741)
measurement conditions: MRP-overexpressing cells, viability with/without cytotoxic drug; measured here: viability series, compound alone, at 10 µM, stronger effect = lower value
Inconclusive results are not listed.
readout label: viability (%)

                                    compound  measure_unit  measured
 0        O=C(O)c1ccc(-n2nnnc2SCc2ccccc2)cc1             %      88.7
 1                          Cc1nc(C)c(C)nc1C             %      98.8
 2  COc1ccc(N2C(N)=C(C#N)C(c3cccnc3)C3=C2CC(C)(C)CC3=O)cc1 (configuration not stated)             %        63
 3                           O=C(O)c1ccccc1O             %       100
 4            Cc1ccc(/C=N/Nc2ncc(Cl)cc2Cl)s1             %      70.4
 5  CC1(C)CC(=O)C2=C(C1)N(c1cccc(O)c1)C1=C(C2)C(=O)CC(C)(C)C1             %      87.2
 6  CCCCNc1c2c3c(cccc3n(C)c1=O)C(=O)c1ccccc1-2             %      32.4
 7  COc1ccc(Cl)cc1C(=O)Nc1ccccc1N1CCN(C(=O)C(C)C)CC1             %      75.7
 8   COc1ccc(N2C(=O)C(Cl)=C(N3CCCC3)C2=O)cc1             %      91.8
 9    CCOC(=O)c1c(C)[nH]c(N=Nc2ccc(C)cc2)c1C             %      98.7
10          Cc1oncc1C(=O)Nc1ccc(C(F)(F)F)cc1             %      96.5
11              CSc1nnc(-c2cc3ccccc3cc2O)n1C             %       101

* * *

experiment summary: reversers of MRP drug resistance, dose response, cell-based (AID 741)
measurement conditions: MRP-overexpressing cells, viability with/without cytotoxic drug
Inconclusive results are not listed. The source made the active and inactive calls. No stated cut-off is given here; in the data, active means toxicity enhancement factor above about 0.054; inconclusive means between about 0.00067 and that limit; inactive means weaker than that.
Outcomes: 1 (yes) (active), 0 (no) (inactive)

                                    molecule      cat
 0  Cc1cccc(Cn2c(NCC(C)O)nc3c2c(=O)n(C)c(=O)n3C)c1 (stereo unspecified)   0 (no)
 1  CCOC(=O)/C(C#N)=C/c1cc(C)n(-c2ccc(C)cc2)c1C   0 (no)
 2  CCCCCC(O)c1cccc(OCc2ccc3ccccc3n2)c1 (stereo unspecified)   0 (no)
 3  CCCN1C2=C(C(=O)CC(C)(C)C2)C(c2ccc(F)cc2)C2=C1c1ccccc1C2=O (stereo unspecified)  1 (yes)
 4  O=C(c1ccccc1)c1ccc2n1CCC2C(=O)O (stereo unspecified)   0 (no)
 5  CC(C(=O)O)c1ccc(N2Cc3ccccc3C2=O)cc1 (stereo unspecified)   0 (no)
 6        O=C(NCCCn1ccnc1)c1sc2cccc(F)c2c1Cl   0 (no)
 7  CC(C(=O)O)c1cccc(C(=O)c2ccccc2)c1 (stereo unspecified)   0 (no)
 8  Cc1cccc2cc(CN(Cc3nnnn3C3CCCCC3)C3CCCC3)c3nnnn3c12  1 (yes)
 9   COc1ccc(N2C(=O)C(Cl)=C(N3CCCC3)C2=O)cc1   0 (no)
10              COC(=O)c1ccccc1NC(=O)c1cccs1   0 (no)
